Test system: Escherichia coli TOP10;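 also: peptides expressed intracellularly from a pBAD plasmid library in pooled LB shake-flask culture, induced with 0.3% L-arabinose, DNA abundance read by NGS, three biological replicates, DESeq2 with apeglm shrinkage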
Assay: shrunken log2 fold change of peptide-encoding DNA abundance (4.5 h post-induction vs induction); higher = less antimicrobial activity (less host growth inhibition)
Conditions: time post-induction: 4.5 h; library: site-saturation at positions 5, 18, 19, 20
# binarize shrunken log2 fold change: threshold -0.09 inclusive, high side rule met, low side rule not met

In [3]: df
Out[3]:
                      chain      category
 0  RRIRERPPRLPRPRPRPVHDPRP  rule not met
 1  RRIRVRPPRLPRPRPRPDSVPRP  rule not met
 2  RRIRRRPPRLPRPRPRPGFRPRP      rule met
 3  RRIRVRPPRLPRPRPRPILPPRP  rule not met
 4  RRIRDRPPRLPRPRPRPRPYPRP      rule met
 5  RRIRVRPPRLPRPRPRPYRCPRP      rule met
 6  RRIRPRPPRLPRPRPRPDHIPRP      rule met
 7  RRIRIRPPRLPRPRPRPTKWPRP  rule not met
 8  RRIRTRPPRLPRPRPRPYSHPRP      rule met
 9  RRIRERPPRLPRPRPRPPMSPRP  rule not met
10  RRIRIRPPRLPRPRPRPEATPRP      rule met
11  RRIRTRPPRLPRPRPRPHPHPRP      rule met
12  RRIRIRPPRLPRPRPRPIRVPRP      rule met
13  RRIRKRPPRLPRPRPRPRKTPRP      rule met
14  RRIRCRPPRLPRPRPRPKKLPRP      rule met
15  RRIRQRPPRLPRPRPRPMIKPRP  rule not met
16  RRIRTRPPRLPRPRPRPGKYPRP  rule not met
17  RRIRGRPPRLPRPRPRPMYSPRP      rule met
18  RRIRVRPPRLPRPRPRPIGVPRP      rule met
19  RRIRYRPPRLPRPRPRPFTYPRP  rule not met
20  RRIRQRPPRLPRPRPRPFWLPRP      rule met
21  RRIRYRPPRLPRPRPRPKGFPRP      rule met
22  RRIRFRPPRLPRPRPRPSFVPRP  rule not met
23  RRIRWRPPRLPRPRPRPESEPRP      rule met
24  RRIRYRPPRLPRPRPRPWGWPRP      rule met
25  RRIRVRPPRLPRPRPRPETDPRP      rule met
26  RRIRGRPPRLPRPRPRPDGEPRP      rule met
27  RRIRARPPRLPRPRPRPYTKPRP  rule not met
28  RRIRWRPPRLPRPRPRPTLSPRP      rule met
29  RRIRKRPPRLPRPRPRPDQHPRP      rule met
